Below, each of the molecules is paired with its reported pEC50 value.
Test system: acid glycoprotein in submucosal glandular cells of the trachea
RUN_DESCRIPTION: Effect on the dissolution of acid glycoprotein in submucosal glandular cells of the trachea (isolated tracheal strips, AB/PAS staining)
Type: cell-based, dogs
ASSAY_SETUP: Canis lupus familiaris; dose required for decreasing acid glycoprotein by 50%; calculated from Table III data; read-out: ED50 (the source's name)
Where a name gives a salt, the structure may show the parent alone.
pEC50 is a log-scale quantity: -log10 of the concentration expressed in molar.

Study these solved cases before continuing.
COc1cc(C(=O)Nc2c(Br)cc(Br)cc2CN(C)C2CCCCC2)ccc1OC(C)=O [Reference Drug 1, hydrochloride]
5.60
CN(Cc1cc(Br)cc(Br)c1N)C1CCCCC1.Cl [Reference Drug 2, hydrochloride]
5.89

Turning to the following molecule.
# pEC50 of COc1cc(C(=O)Nc2c(Br)cc(Br)cc2CN(C)C2CCCCC2)ccc1O.Cl [Compound of This Invention, hydrochloride] = 6.64

Values compiled from patent EP0061157A1.
